# protocol-description: yeast display, Sf9 membrane polyspecificity reagent, FACS + sequencing; frameworks hold sequencing errors
measured-quantity: polyreactivity (PSR sort gate)

Please review the following examples before continuing.
{"entry-sequence": "QVQLVESGGGLVQAGGSLRLSCAASGRTFYPNTMGWYRQAPGKERELVAAIRSSGGSTYYADSVKGRFTISRDNAKKTVYLQMNSLKPEDTAVYYCAAKGRSSYFYWFDYWGQGTQVTVSS", "polyreactivity (PSR sort gate)": "high polyreactivity"}
{"entry-sequence": "QVQLVETGGGLVQAGGSLRLSCAASGRIFQWYAMGWYRQAPGKERELVAAINNGGSTNYADSVKGRFTISRDNAKNTVYLQMNSLKPEDTAVYYCAAELTFVAQGWFVTYDYWGQGTQVTVSS", "polyreactivity (PSR sort gate)": "high polyreactivity"}
{"entry-sequence": "QVQLVESGGGLVQAGGSLRLSCAASGRIFAGYAMGWYRQAPGKERELVAGISNRGGSTYYADSVKGRFTISRDNAKKTVYLQMNRLKPEDTAVYYCAVRRRSLGGYWGQGTQVTVSS", "polyreactivity (PSR sort gate)": "high polyreactivity"}
{"entry-sequence": "QVQLVESGGGLVQAGGSLRLSCAASGIIFTLYATGWYRQAPGKERELVAAISGSGGSTYYADSVKGRFTISRDNAKNTVYLQMNSLKPEDTAVYYCAARGVRGTGLDSRMYYWGQGTQVTVSS", "polyreactivity (PSR sort gate)": "high polyreactivity"}
{"entry-sequence": "QVQLVESGGGLVQAGGSLRLICAASGTIFSDNEMGRYRQAPGKEREFVADISSDGSTYYADSVKGRFTISRDNAKNTVYLQMNSLKPEDTAVYYCDADPIFSLYYHYGHFDYWGQGTQVTVSS", "polyreactivity (PSR sort gate)": "low polyreactivity"}
{"entry-sequence": "QVQLVESGGGLVQAGVSLRLSCAASGFIFGLYVMGWYRQSPGKERELVAGITWTGGTTYYADSVKGRFTISRDNAKNTVYLQMNSLKPEDTAVYYCATRNYAVVPSVRREGYYWGQGTQVTVSS", "polyreactivity (PSR sort gate)": "low polyreactivity"}
{"entry-sequence": "QDQLVESGGGLVHAGGSLRLSCVPPDSSSLSMLWDGIDRRLGKKGSWLPELTSRGVGTYYADSVKGRFTISRDNAKNPVYLQMNSLKPEDTAVYYCNARYEVFYRYDYWGQGTQVTVSS", "polyreactivity (PSR sort gate)": "low polyreactivity"}
{"entry-sequence": "QVQLVESGGGLVQAGGSLRLSCAASGNTLHVYAMGWYRQAPGKERELVARITGGGRTYYADSVKGRFTISRDNAKNTVYLQMNSLKTEDTAVYYCATDYYGHKVLYDYWGQGTQVTVSS", "polyreactivity (PSR sort gate)": "low polyreactivity"}

QUERY: Please give the measured polyreactivity (PSR sort gate) for this sequence: QVQLVESGGGLVQAGGSLRLSCAASGLTFDGNTMGWYRQAPGKERELVAAISFDGGNTYADSVNGRFTISRDNAKNTVYLQMNSLKPEDTAVYYDYWGQGTQVTVSS
RESULT: low polyreactivity

QUERY: Record: QVQLVDSGGGLVQAGGSLRLSCAASGIISIVYAMGWYRQAPGKERELVAAISSGGSTYYADSVKGRFTISRDNAKNTVYLQMNRLKPEDTAVYYCATAYRYPPNAYFQRMDSWGQGTQVTVSS
RESULT: high polyreactivity

QUERY: Record: QVQLVESAGGLVQAGGSLRLSCDASGRIFQRNAMGWYRQEPGKERQFVAAISSRGGTTYYADSVKGRFTISRDNAKNTVYLQMNSLKQEDNAVYYCAAGYVHLYYFHEYYWGQGTQVTVSS
RESULT: high polyreactivity

* * *

# protocol-description: yeast display, Sf9 membrane polyspecificity reagent, FACS + sequencing; frameworks hold sequencing errors
measured-quantity: polyreactivity (PSR sort gate)

Please review the following examples before continuing.
{"entry-sequence": "QVQLVESGGGLVQAGGSLRLSCAASGSIFGEYVRGWYREAPGKERELVADISWRDGDTYYADSEKGRFTISRDNAKNTVYLQMNSLKPEDTAVYYCAADVIVPESYGYWPLSYYYWGQGTQVTVSS", "assay-value": "low polyreactivity"}
{"entry-sequence": "QVQLVESGGGLVQAGGSLRLSCAASGSNFSAYMGWYRQAPGKERELVADISSTGTTYYADSVKGRFTISRDNAKNTVYLQMNSLKPEDTAVYYCNADYFLQQEVTFDYWGQGSQVTVSS", "assay-value": "high polyreactivity"}
{"entry-sequence": "QVQLEESRGGIVQAGGSLRLSCAASGFTFSTYAMGWYRPAPGKELELVASISRSGNTNYADSVKGRFTISRDNAKNTVYLQMKSLKPEDTAVYSSAAELVYRRVRYDYWGQGTQVTVSS", "assay-value": "high polyreactivity"}
{"entry-sequence": "QVQLVESWGGLVQAGGSLRLSCAASGSTFYRYAMGWYRQAPGKERELVAAISRSGGNTFYADSVKGRFTISRDNAKNTVYLQMNSLKQEDTAVYYCAAEAHLACYYRYYGGYGYDYWGQGTQVTVSW", "assay-value": "high polyreactivity"}
{"entry-sequence": "QVQLVESGGGLVQAGGSLRLSCAASGRILPYYAMGWYRPAPGKERELVAALTGGGGSTYYADSVKGRFTISRDNAKNTVYLQMNSLKPEDTAVYYCAKPRGRASLALYRFSLYYYWGQGTQVTVSS", "assay-value": "high polyreactivity"}

QUERY: Please give the measured polyreactivity (PSR sort gate) for this sequence: QVQLVESGGGLVQAGGSLRLSCAASGSTFYHNVMGWYLQAPGKERELVASIDTGDSTNYADSVKGRFTISRDNAKNTVYLQMNSLKPEDTAVYYCNADSYPALNKRGYDYWGQGTQVTVSS
RESULT: low polyreactivity

QUERY: Record: QVQLVESGGGLVQGGGSLRLSCAASGLIFARNAMGWYRQAPGKERELVAAISKRGGSTFYADSVKGRFTISRDNAKKTVYLQMNSLKPEDTAVYYCHARSSETWHGDYWGQGTQLTVSS
RESULT: high polyreactivity

QUERY: Record: QVQLVESGGGLVQAGGSLRLSCAASGLIFRAYAMGWYRQAPGKERELVAAISRRGGSTYYADSVKGRFTISRDNANNTVYLQMNSLKPEDSAVYYCNKDSRSWPFKYDYWGQGTQVTVSS
RESULT: high polyreactivity

QUERY: Record: QVQLEESGGGLVQAGGSLRLSCAASGSIFVTNAMGWYRQAPVKERELVAAISSGGNTNYADSVKGRFTISRDNAKNTVYLQMNSLKPEDTAVYYCAKDPDKVDYVDMDYWGQGTQVTVSS
RESULT: low polyreactivity

QUERY: Record: QVQLVESVGGLVQAGGSLRLSCASSGSTFGFNAIGWYRKAPVKERELVAANTFSGGTTYYADSVKGRFTISRDNAKNTVYLQMNSLKPEDTAGYYCNAEWWYQYTGPFSPWGEDYWGQGTQVTVSS
RESULT: low polyreactivity

QUERY: Record: QVQLVESGGGIVQAGGSLRLTCAASGRIFYYYAMGWYRQAPGKEREFVAASSRSGGSTYYADSVKGRFTISRDNAKNTVYLQMNSLKPEDTAVYYCNAVRSYRGDFKYDWGQGTQVTVSS
RESULT: high polyreactivity

QUERY: Record: QVQLVESGGGLVQAGGSLRLSCAASGYIFGSYVMGGYRQAPGKERELVAAITRIGASTYYADSVKGRFTISRDNAKNTVYLQMNSLKPEDTAVYYCATDQGGYYENDYWGQGTQVTVSS
RESULT: low polyreactivity

QUERY: Record: QVQLVESGGGLVQAGGSLRLSSAASGITFYINAMGWYRPAPGKERELVAALSWPRGSTYYADSVKGRFTISRDNAKNTVYLQMNSLKPEDTAVYYCAGVAYFELSGGGLEYGYDYWGQGTQVSVSS
RESULT: high polyreactivity

QUERY: Record: QVQLVESGGGLVQAGGSLRLSCAASGSTFLYYAMGWYRQAPGKERELVAAITWSGGRTYYADSVKGRFTISRDNAKNTVYLQMNSLKPEVTAVYYCNKAYPWLRSTALNPGLYDYWGQGTQVTVSS
RESULT: high polyreactivity

QUERY: Record: QVQLVESGGGLVQAGGSLRLSCAASGFIFGVYAMGWYRQAPGNERELVAAISGSGGTTYYADSVKGRFTISRDNAKNTVYLQMNSQKPEDTAVYYCNAAYRVRYIVNYDYWGQGTQVTVSS
RESULT: low polyreactivity

QUERY: Record: QVQLVESGGGLVQAGGSLRLSCAASGLIFRPYAMGWYRQAPGKERELVAAITSGGSTDYADSVKGRFTISRDNAKNTVYLQMNSLKPQDTAVYYCNADTIPDGEDRYVYWGQGTQVTVSS
RESULT: low polyreactivity

* * *

# protocol-description: yeast display, Sf9 membrane polyspecificity reagent, FACS + sequencing; frameworks hold sequencing errors
measured-quantity: polyreactivity (PSR sort gate)

Please review the following examples before continuing.
{"entry-sequence": "QVQLVESGGGLVQAGGSLRLSCAASGRIFTIYAMGWSRQAPGKERELVATISRRGGSTYYADSVKGRFTISRDNAKNTVYLKMNSLKPEDSAVYYFAADSVITWWAYYYWGQGTQVTVSS", "assay-value": "high polyreactivity"}
{"entry-sequence": "QFQLVESGGGLVQAGGSLRLSCAASGFTFWYYAMGWYRQAPGKERELVARITSRGADTYADSVKGRFTISRDNAKNTVYLQMNSLKPEDTAVYYCAVDPGFSWYEQYDYWGQGTQVTVST", "assay-value": "low polyreactivity"}
{"entry-sequence": "QVQLVESGGGLVQAGGSLRKSCAASGIIFAYYALGCSRQAPGKERELGAAISSDGSTNYADSVKGRFTISRDNAKNSVYLQMNILKPVDTAVYYCAAKAYLYHWFEMYYWGQGTQVTVSS", "assay-value": "high polyreactivity"}
{"entry-sequence": "QVQLVESGGGLVQAGGSLRLSCAASGSTFRNNAMGWYRQAHGKERELVAAISRGGGSTYYADSVKGRFTISRDNAKNTVYLQMNSLKPEDTAVYYCARRPTGIYDYWGQGTQVTVSS", "assay-value": "high polyreactivity"}
{"entry-sequence": "QVQIVESGGGLVQAGGSLRISCAASGYIFLPYAMGWYRQAPGKERELVADITSVGRTYYADSVKGRFTISRDNEKNTVYLQMNSLKPEDTAVYYCAKRHSLGYGRSRYSSGYDYWGQGTQVTVSS", "assay-value": "high polyreactivity"}
{"entry-sequence": "QVQLVESGGGLVQAGGSLRLSCAASGSIFSENTMGWYRQAPGTKREWVADITSGGSTNYADSVKGRFTISRDNAKNTVYLQMNSLKPEDTAVYYCAVPGRLYAHPQGYDYWGQGTQVTVSS", "assay-value": "low polyreactivity"}

QUERY: Please give the measured polyreactivity (PSR sort gate) for this sequence: QVQLVESGGGLVQAGGSLRLSCAASGSTFSTNAMGWYRQAPGKERELVASITRSGGSTYYADSVKGRFTISRDNAKNTFYLLMNSLKPEDTAVYYCNADGYYDYDYGYWGQGTQVTVSS
RESULT: low polyreactivity

QUERY: Record: QVQLVESGGGLVQAGGSLRLSCAASGGTFCRNVMGWYRQAPGKERELVAAISRRGSSTYYADSVKGRFTISRDNAKNTVYLQMNSLKPEDTAVYYCARDQYTGADEAGDDYWGQGTQVTVSS
RESULT: high polyreactivity

All values here come from the nanobody polyreactivity screen of Harvey et al. (2022).
